For each entry below, report its interaction score value.
# assayed_target: T1, 4H1391-AA
# T1 chain: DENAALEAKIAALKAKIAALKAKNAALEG
# protocol_notes: two-hybrid library CCmax;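 further: natural log of median RNA to DNA barcode read ratio; higher means stronger binding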
# cond: mean of both orientations
Answers are plain numbers.

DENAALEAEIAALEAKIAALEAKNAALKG [4H1064-AA] :: 1.33
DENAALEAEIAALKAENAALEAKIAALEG [4H1109-AA] :: -1.71
DENAALEAEIAALEAEIAALKAENAALEG [4H1035-AA] :: 0.63

Batch request: interaction score per item, same order as input.
1. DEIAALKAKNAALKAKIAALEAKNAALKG [4H1000-AA]
2. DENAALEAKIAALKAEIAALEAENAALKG [4H1348-AA]

Given back:
[-1.56, -0.755]
